Experimental System: Inadl_6, Q8NI35
Sequence (Q8NI35 1058-1167): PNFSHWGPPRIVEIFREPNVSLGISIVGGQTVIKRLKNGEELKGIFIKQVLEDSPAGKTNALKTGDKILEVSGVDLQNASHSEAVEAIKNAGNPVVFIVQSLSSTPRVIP
Measurement Description: holdup assay
Design: key: below the threshold = too weak to quantify, mostly under pKd 3.1 to 4
Condition Notes: plain residues with an end cap or a label only (N-terminal biotin on a linker: ado-ado)
Readout Name: pKd

For orientation, consider the following solved cases.
Binder	pKd
VISSDDLTEL [CAPN6, Q9Y6Q1]	below the threshold
GVHSNDHSVV [LPAR1, Q92633]	below the threshold
AKADAQESRL [PLCB2, Q00722]	3.48
QKNKDREYYV [NRXN3, Q9HDB5]	below the threshold
TFSRRPKTRV [CD226, Q15762]	below the threshold

Ask: Give the reported value of pKd for this record: PLATCDETSI [SEMA4F, O95754]
Reply: below the threshold

Ask: Give the reported value of pKd for this record: AHGSTRDQSI [KCNB1, Q14721]
Reply: below the threshold

Ask: Give the reported value of pKd for this record: RDYTQSSSSL [GRM5, P41594]
Reply: below the threshold

Ask: Give the reported value of pKd for this record: HDDYFYHDEL [RCN2, Q14257]
Reply: below the threshold

Ask: Give the reported value of pKd for this record: KPDKQEEFYA [SDC3, O75056]
Reply: below the threshold

The measured values listed here are drawn from paper PMC9482650.
